biological target: SERCA2a (cardiac SR vesicles) (Sus scrofa, UniProt P11607); construct: Cardiac SR vesicles were isolated from fresh porcine left ventricular tissue; from tissue; host or cells: porcine left ventricular tissue, cardiac SR vesicles; assay: NADH-coupled Ca-ATPase activity assay, cardiac SR (CRC at pCa 5.4); format: biochemical, porcine; settings: pCa 5.4, mean ± SD, n = 3
Sequence (P11607 1-997 isoform P11607-2): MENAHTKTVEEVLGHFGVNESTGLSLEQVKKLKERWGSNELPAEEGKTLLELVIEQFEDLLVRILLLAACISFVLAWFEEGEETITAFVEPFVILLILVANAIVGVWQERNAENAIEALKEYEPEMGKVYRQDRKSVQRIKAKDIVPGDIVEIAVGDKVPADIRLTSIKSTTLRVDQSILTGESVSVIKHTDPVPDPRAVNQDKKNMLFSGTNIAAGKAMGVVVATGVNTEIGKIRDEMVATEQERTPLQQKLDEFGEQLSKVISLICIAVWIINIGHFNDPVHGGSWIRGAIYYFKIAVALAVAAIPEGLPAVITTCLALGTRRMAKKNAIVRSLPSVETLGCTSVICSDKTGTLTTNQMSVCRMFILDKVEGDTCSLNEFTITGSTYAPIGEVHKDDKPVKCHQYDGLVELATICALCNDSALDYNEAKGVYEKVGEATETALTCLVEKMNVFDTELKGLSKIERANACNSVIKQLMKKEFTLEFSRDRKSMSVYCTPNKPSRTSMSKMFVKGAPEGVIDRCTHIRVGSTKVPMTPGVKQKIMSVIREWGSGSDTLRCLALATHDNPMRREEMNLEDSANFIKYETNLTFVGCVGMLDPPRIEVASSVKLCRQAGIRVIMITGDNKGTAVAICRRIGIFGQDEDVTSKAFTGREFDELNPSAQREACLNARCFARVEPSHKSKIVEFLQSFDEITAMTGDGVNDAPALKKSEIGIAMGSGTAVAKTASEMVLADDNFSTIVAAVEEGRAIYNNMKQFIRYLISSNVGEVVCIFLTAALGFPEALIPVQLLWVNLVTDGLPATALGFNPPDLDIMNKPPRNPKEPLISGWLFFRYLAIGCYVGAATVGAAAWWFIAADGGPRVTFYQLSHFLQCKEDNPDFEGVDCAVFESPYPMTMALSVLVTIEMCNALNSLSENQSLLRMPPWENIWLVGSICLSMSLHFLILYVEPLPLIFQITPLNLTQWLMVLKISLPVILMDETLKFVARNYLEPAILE
Give measured pEC50 for each item. Keep answers brief.
// scale note: pEC50 = -log10(conc_M); give the bare number

Task item: Fill in pEC50 for record CCOC(=O)C1(CCCc2ccccc2)CCN(C(=O)CC2=CCCCC2)CC1 [Compound 7]
Reply: 5.54

Task item: Fill in pEC50 for record CCCN(Cc1ccccc1OC)C(=O)c1cc(C)c(C)s1 [Compound 4]
Reply: 5.32

Task item: Fill in pEC50 for record CCC(C)N(Cc1ccc(C)cc1)Cc1nccs1 (stereo not shown) [Compound 1]
Reply: 4.51

Task item: Fill in pEC50 for record C=C(C)COc1cccc(C(=O)NCCn2cccn2)c1 [Compound 15]
Reply: 4.80

* * *

target: SERCA1a (skeletal SR vesicles) (Oryctolagus cuniculus, UniProt P04191); construct: rabbit muscles were freshly harvested from the back and hind leg of New Zealand White rabbits and purified using a sucrose gradient; from tissue; host or cells: rabbit (New Zealand White) back and hind leg skeletal muscle, light SR vesicles; assay: Oxalate-supported Ca2+-uptake assay, skeletal SR (CRC at pCa 5.4); assay type: biochemical, rabbit; conditions: maximal effect of CRC, pCa 5.4, mean ± SD, n = 3; dash = no observable effect
Sequence (P04191 1-994 isoform P04191-2): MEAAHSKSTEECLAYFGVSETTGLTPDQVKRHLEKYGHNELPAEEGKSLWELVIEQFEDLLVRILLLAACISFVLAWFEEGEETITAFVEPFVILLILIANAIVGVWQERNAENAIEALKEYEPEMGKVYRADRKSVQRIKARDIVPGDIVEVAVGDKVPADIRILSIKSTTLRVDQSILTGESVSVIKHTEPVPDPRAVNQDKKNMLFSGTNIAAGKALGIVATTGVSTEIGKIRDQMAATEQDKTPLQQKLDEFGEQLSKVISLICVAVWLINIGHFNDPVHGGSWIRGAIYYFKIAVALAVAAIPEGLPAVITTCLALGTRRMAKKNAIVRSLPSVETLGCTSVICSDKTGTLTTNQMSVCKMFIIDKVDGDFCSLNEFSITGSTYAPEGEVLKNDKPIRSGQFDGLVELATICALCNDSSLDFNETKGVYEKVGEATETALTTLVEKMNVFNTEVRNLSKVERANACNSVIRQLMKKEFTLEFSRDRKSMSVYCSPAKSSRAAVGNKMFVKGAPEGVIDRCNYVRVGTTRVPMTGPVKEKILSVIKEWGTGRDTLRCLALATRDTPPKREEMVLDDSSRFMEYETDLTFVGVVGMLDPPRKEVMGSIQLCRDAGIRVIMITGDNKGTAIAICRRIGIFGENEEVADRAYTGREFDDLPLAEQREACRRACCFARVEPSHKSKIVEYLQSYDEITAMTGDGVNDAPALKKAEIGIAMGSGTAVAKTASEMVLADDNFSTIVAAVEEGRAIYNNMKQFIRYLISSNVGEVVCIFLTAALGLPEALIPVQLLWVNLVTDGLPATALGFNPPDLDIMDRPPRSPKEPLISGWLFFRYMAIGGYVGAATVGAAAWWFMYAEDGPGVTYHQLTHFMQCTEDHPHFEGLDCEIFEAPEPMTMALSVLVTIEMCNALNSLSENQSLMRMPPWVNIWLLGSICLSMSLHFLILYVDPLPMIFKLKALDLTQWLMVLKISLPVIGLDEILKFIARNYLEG
parameter-measured: Skeletal SR Ca^2+ Uptake Activity Percent Increase (%)
Report as a plain number; the unit % is understood.

Task item: Name the value of Skeletal SR Ca^2+ Uptake Activity Percent Increase reported for CCCCN(Cc1ccsc1)C(=O)c1occc1C when tested on SERCA1a (skeletal SR vesicles) (Oryctolagus cuniculus, UniProt P04191).
Reply: 9

Task item: Name the value of Skeletal SR Ca^2+ Uptake Activity Percent Increase reported for CCOC(=O)C1(Cc2cccc(C(F)(F)F)c2)CCN(C(=O)c2sccc2C)CC1 when tested on SERCA1a (skeletal SR vesicles) (Oryctolagus cuniculus, UniProt P04191).
Reply: 13

Task item: Name the value of Skeletal SR Ca^2+ Uptake Activity Percent Increase reported for C=CCN(Cc1ccccc1OCC)C(=O)C1CCC1 when tested on SERCA1a (skeletal SR vesicles) (Oryctolagus cuniculus, UniProt P04191).
Reply: 10

* * *

Give measured EC50 for each item. Keep answers brief.
target: SERCA1a (skeletal SR vesicles) (Oryctolagus cuniculus, UniProt P04191); construct: rabbit muscles were freshly harvested from the back and hind leg of New Zealand White rabbits and purified using a sucrose gradient; test: Oxalate-supported Ca2+-uptake assay, skeletal SR (CRC at pCa 5.4); conditions: pCa 5.4, mean ± SD, n = 3; dash = no observable effect; read-out: Skeletal SR Ca^2+ Uptake Activity EC50
Report as a plain number; the unit nM is understood.

Task item: Fill in EC50 for record CCOC(=O)C1(CCCc2ccccc2)CCN(C(=O)CC2=CCCCC2)CC1 [Compound 7]
Reply: 1400

Task item: Fill in EC50 for record Cc1ccsc1CN(C)C(=O)CC(c1ccccc1)c1ccc2c(c1)OCO2 (stereo not drawn) [Compound 11]
Reply: 1200

Task item: Fill in EC50 for record COc1cccc(-c2nn(-c3ccccc3)cc2CN(Cc2c(C)nn(C)c2C)C2CC2)c1 [Compound 18]
Reply: 1100
